B1: RHOBTB3 (parent)
chain: GGADIIVIKYNVNDKFSFHEVKDN

Variants of: B1
procedure_text: protein stability index of a GFP-peptide fusion (GPS, HEK-293T) (PSI 1-6); higher = more stable;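 also: lentivirally expressed fusions sorted by FACS into six bins by GFP to DsRed ratio, PSI derived from sequencing read proportions per bin multiplied by bin number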
applied_conditions: c terminus: a fixed tail appended
measurement_label: protein stability index

variant_designation=A3L result=2.64
variant_designation=E20M result=2.91
variant_designation=Y10P result=2.77
variant_designation=N11K result=4.82
variant_designation=F16V result=1.98
variant_designation=F18Y result=2.72
variant_designation=D4K result=4.09
variant_designation=D4R result=4.21
variant_designation=V12D result=1.95
variant_designation=V12A result=2.83
variant_designation=N13E result=2.71
variant_designation=H19D result=1.95
variant_designation=D14R result=2.36
variant_designation=E20H result=1.9
variant_designation=D4N result=2.47
variant_designation=V21E result=1.37
variant_designation=V12G result=2.7
variant_designation=Y10S result=1.88
variant_designation=S17A result=3.54
variant_designation=G2I result=1.52
variant_designation=V12W result=3.56
variant_designation=N11F result=1.97
variant_designation=K22D result=2.36
variant_designation=N24D result=1.94
variant_designation=F16E result=2.12
variant_designation=K9Y result=2.89
variant_designation=I8G result=2.92
variant_designation=F16K result=1.73
variant_designation=D4V result=3.66
variant_designation=V12L result=2.24
variant_designation=F16P result=2.55
variant_designation=D4C result=2.96
variant_designation=N24V result=3.86
variant_designation=K22G result=2.76
variant_designation=N24S result=2.71
variant_designation=F18E result=1.76
variant_designation=E20N result=3.38
variant_designation=D23Y result=2.28
variant_designation=K9T result=2.97
